TARGET OF ASSAY: mutant mAhR T343I (Mus musculus, UniProt P30561, M324I/T343I)
TEST DESCRIPTION: AhR DNA binding (gel retardation) assay, T343I mAhR
READOUT TYPE: pEC50
Expect pEC50 as a plain number equal to -log10 of the molar concentration.

Suppose we examine the compound "Clc1cc2c(cc1Cl)Oc1cc(Cl)c(Cl)cc1O2" ; what pEC50 value has been reported?
8.75
